Recorded inhibition ratio by entry
Molecular target: human B7-H3 protein (human) (UniProt Q5ZPR3)
Assay: Octet (BLI) epitope binning on captured human B7-H3; competitor 72D1D11
experimentalReadout: inhibition ratio

• MGA017 (antibody, from a related filing, V domains shown) VH: EVQLVESGGGLVKPGGSLRLSCAASGFTFSSYGMSWVRQAPGKGLEWVATINSGGSNTYYPDSLKGRFTISRDNAKNSLYLQMNSLRAEDTAVYYCARHDGGAMDYWGQGTTVTVSS VL: DIQMTQSPSSLSASVGDRVTITCRASESIYSYLAWYQQKPGKAPKLLVYNTKTLPEGVPSRFSGSGSGTDFTLTISSLQPEDFATYYCQHHYGTPPWTFGQGTRLEIK = 98.9%
• 81C8A1 (antibody, V domains shown) VH: QVTLKESGPGILQPSQTLSLTCSFSGFSLSTSGMGVSWIRQPPGKGLEWLAHIYWDDDRRYNPSLKSRLTISRDTSRNQVFLQITTVDTADTATYYCARSPYGSEAYWGQGTLVIVSA VL: QIVLSQSPTILSAFPGEKVTMTCRASSSVSFIQWYQQKSGSSPKPWIYSPSNLASGVPTRFSGSGSGTSYSLTIGRVEAEDAATYYCQQWSSYPWTFGGGTKVEIK = 95.4%
• 312E1E2 (antibody, V domains shown) VH: QVQLQQSGPELVRPGVSVKISCKGSGYTFTDYAMHWVKQSHAKSLEWIGIVSTHYGNTNYNQNFKGKATMTVDKSSSTVYMELARLTSEDSAIYYCARSEGLRLDWFAHWGQGTLVTVSA VL: DIQMTQSPASLSASVGEIVTITCRASENIYSYLAWYQQKQGKSPHLLVYNAKTLAEGVPSRFSGSGSGTQFSLKISRLQPEDFGSYYCQNHYVFPFTFGSGTKLEIK = -32.6%
• 62H9H5 (antibody, V domains shown) VH: QVQLQQSGAELAKPGASVKMSCKASGYTFTNYWIHWVKQRPGQGLEWIGYISPSTGYTEYNQKFKGKATLTAVKSSSTAFMQLSSLTSEDSAVYFCARGTGYWGQGTTLTVSS VL: DIQMTQSPASLSASVGESVTITCRASENIYSFFAWYQQKEGKSPQLLVYNAKTLEEGVPSRFSGSGSGTQFSLKINSLQPEDFGSYYCQHNYVSPFTFGSGTKLEIK = 95.5%
• 227E12D1 (antibody, V domains shown) VH: EVKLVESGGGLVKPGGSLKLSCAASGFTFSSYGMSWVRQTPEKRLEWVATISGGGTYTYYPDSVKGRFTISRDNAKNNLYLQMSSLRSDDTALYYCARHEGLVMDYWGQGTSVTVSS VL: DIQMTQSPASLSASVGETVTITCRASENIYSYLAWYQQKQGKSPQLVVYNAKTLAEGVPSRFSGSGSGTQFSLKINSLQPEDFGTYYCQHHYGPPPYTFGGGTKLEIK = 97.1%
• 106A5B3 (antibody, V domains shown) VH: EVQLVESGGDLVKPGGSLKLSCAASGFTFSSYGMSWVRQTPDKRLEWVATISSGGSYIYYPDSMKGRFTISRDNAKNTLYLQMSSLQSEDTAIYYCASDYGSRYFDYWGQGTTLTVSS VL: QIVLTQSPAIMSASPGEKVTMTCSASSSVIYMSWYKQKPGSSPRLLIYDTSNLASGVPVRFSGSGSGTSYSLTISRMEAEDAATYYCQQWSSYPRTFGGGTKLEIK = 96.8%

Attribution: patent US20250313632A1
